# Test Target: T1, Fusion protein of extracellular domain of human TIGIT and His-tag (human TIGIT ECD-his) (human)
# T1 chain: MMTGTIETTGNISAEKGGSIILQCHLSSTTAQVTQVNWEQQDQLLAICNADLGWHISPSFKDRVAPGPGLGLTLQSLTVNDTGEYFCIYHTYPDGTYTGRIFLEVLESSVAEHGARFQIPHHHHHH
# Test Method Notes: BIAcore
Value Kind: koff (s⁻¹)
The figure you give is taken to be in s⁻¹; do not add the unit.

Example entries and their recorded answers appear below.
TIGIT-006-H5L3 (antibody, V domains shown, Humanized anti-TIGIT antibody) VH: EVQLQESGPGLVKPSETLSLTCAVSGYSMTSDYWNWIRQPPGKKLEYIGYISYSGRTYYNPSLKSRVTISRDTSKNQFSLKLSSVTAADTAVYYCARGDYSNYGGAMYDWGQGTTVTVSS VL: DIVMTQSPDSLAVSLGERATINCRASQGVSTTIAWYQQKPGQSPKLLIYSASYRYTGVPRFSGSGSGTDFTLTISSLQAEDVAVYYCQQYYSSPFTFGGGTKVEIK ... 0.000183
TIGIT-005-H2L1d (antibody, V domains shown, Humanized anti-TIGIT antibody with NG-site mutation in VL) VH: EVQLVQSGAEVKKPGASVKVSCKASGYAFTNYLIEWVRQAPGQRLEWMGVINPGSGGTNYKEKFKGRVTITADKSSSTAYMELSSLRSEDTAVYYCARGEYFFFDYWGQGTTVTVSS VL: DIVMTQSPDSLAVSLGERATINCKASQHVSNAVAWYQHKPGQSPKLLIYSASYRYTGVPDRFSGSGSGTDFTLTISSLQAEDVAVYYCQQHYNTPHTFGGGTKVEIK ... 0.000257
TIGIT-002-H4L3 (antibody, V domains shown, Humanized anti-TIGIT antibody) VH: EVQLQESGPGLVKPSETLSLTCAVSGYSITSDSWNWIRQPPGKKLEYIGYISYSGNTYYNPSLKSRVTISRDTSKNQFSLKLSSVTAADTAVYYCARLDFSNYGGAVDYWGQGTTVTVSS VL: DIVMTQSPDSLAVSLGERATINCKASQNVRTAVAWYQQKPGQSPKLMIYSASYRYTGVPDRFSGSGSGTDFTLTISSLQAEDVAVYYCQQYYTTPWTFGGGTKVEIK ... 0.000293

Attention now shifts to the item below.
## Task Report koff for TIGIT-070-H1L1 (antibody, V domains shown, Humanized anti-TIGIT antibody) VH: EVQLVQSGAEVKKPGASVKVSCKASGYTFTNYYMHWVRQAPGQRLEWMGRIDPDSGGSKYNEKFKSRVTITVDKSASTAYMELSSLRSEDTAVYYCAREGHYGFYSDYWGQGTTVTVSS VL: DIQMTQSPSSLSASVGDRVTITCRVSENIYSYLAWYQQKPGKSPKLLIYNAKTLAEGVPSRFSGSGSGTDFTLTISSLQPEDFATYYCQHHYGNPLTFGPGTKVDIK please.
## Result 0.000219
